biological target: CYP3A4 (Homo sapiens, UniProt P08684); assay: biochemical; settings: CYP3A4 AC50 (half-maximal activity concentration)
Sequence (P08684 whole entry): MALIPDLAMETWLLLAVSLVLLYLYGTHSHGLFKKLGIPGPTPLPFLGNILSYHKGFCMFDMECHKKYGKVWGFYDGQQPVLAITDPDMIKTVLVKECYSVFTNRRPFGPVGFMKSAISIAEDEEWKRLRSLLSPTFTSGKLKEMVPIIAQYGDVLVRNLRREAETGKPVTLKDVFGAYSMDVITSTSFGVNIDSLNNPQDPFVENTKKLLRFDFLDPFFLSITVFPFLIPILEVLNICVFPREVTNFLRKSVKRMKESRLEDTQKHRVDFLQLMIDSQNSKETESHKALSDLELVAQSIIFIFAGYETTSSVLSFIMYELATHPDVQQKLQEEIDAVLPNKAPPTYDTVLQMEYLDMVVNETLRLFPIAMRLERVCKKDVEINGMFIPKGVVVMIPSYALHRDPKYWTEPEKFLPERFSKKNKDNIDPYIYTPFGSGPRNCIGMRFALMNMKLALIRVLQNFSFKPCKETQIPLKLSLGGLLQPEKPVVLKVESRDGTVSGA

| COMPOUND | AC50, µM |
| --- | --- |
| Brc1ccc(Oc2ccc(Br)cc2)cc1 | 28.4 |
| O=C1C(=O)c2cccc3cccc1c23 | 23.7 |
| O[Si](c1ccccc1)(c1ccccc1)c1ccccc1 | 13.7 |
| CCOC(=O)NC(C)(C)Cc1ccc(Cl)cc1 | 14.6 |
| O=S(=O)(Oc1ccc(Cl)cc1Cl)c1ccccc1 [2,4-Dichlorophenyl benzenesulfonate] | 3.27 |

* * *

biological target: human CYP2C19 (Homo sapiens); test: biochemical; settings: IC50 CYP2C19 assay
Sequence (P33261 whole entry): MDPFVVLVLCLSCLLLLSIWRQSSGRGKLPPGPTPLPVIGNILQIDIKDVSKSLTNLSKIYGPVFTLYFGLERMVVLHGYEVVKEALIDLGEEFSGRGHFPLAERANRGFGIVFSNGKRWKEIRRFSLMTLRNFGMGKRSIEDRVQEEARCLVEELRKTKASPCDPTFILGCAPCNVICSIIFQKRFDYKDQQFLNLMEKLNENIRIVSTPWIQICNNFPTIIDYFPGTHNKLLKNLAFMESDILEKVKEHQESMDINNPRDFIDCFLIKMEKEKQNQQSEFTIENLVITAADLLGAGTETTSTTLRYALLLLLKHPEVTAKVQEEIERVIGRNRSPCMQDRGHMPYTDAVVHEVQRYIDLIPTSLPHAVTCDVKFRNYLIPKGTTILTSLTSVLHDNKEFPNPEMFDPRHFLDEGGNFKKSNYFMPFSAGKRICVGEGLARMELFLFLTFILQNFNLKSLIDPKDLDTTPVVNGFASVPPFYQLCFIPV
Items are presented alongside their recorded IC50.

| MOLECULE | IC50 |
| --- | --- |
| CCOP(=O)(OCC)OC(=CCl)c1ccc(Cl)cc1Cl | 770 nM |
| O=S(=O)(Oc1ccc(Cl)cc1Cl)c1ccccc1 [2,4-Dichlorophenyl benzenesulfonate] | 420 nM |

* * *

biological target: human CYP2D6 (Homo sapiens, UniProt P10635)
Sequence (P10635 whole entry): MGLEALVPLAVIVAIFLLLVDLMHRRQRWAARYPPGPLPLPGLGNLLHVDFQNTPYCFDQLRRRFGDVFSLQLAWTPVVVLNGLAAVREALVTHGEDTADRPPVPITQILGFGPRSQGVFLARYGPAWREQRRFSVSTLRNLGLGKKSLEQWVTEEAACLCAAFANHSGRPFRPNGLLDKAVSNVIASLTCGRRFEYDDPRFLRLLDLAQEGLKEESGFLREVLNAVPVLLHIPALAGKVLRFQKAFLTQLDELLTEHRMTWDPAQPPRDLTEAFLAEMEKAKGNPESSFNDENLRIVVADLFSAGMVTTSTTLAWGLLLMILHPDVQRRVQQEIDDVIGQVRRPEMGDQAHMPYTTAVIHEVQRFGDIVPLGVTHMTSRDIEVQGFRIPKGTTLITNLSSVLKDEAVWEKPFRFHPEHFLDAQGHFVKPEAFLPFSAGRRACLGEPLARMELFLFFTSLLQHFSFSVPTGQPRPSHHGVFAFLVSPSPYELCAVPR
Mark YES for IC50 under 800 nM, NO if at or over.

| COMPOUND | CLASSIFICATION |
| --- | --- |
| Cl.Clc1ccc(C(OCCN2CCCCC2)c2ccccc2)cc1 (stereo not drawn) [Cloperastine hydrochloride] | YES |
| CC(C)CC(N(C)C)C1(c2ccc(Cl)cc2)CCC1.Cl (stereo not drawn) [Sibutramine hydrochloride] | NO |
| CCC(COC(=O)c1cc(OC)c(OC)c(OC)c1)(c1ccccc1)N(C)C.O=C(O)/C=C\C(=O)O (stereo not drawn) [Trimebutine maleate] | YES |
| CSc1ccc(C(=O)C(C)(C)N2CCOCC2)cc1 | NO |
| CCC(OC(C)=O)C(CC(C)NC)(c1ccccc1)c1ccccc1.Cl (stereo not drawn) | NO |
| COP(=S)(NC(C)C)Oc1ccc(C)cc1[N+](=O)[O-] (stereo not drawn) | NO |
| CCCC[P+](C)(CCCC)CCCC.COS(=O)(=O)[O-] [Tributylmethylphosphonium methyl sulfate] | YES |
| c1cc[c]([Bi]([c]2ccccc2)[c]2ccccc2)cc1 | NO |
| CCCCCCCC[N+](C)(CCCCCCCC)CCCCCCCC.O=S(=O)([O-])C(F)(F)F | YES |
| CCOC(=O)c1c(C)n(C)c2ccc(O)cc12 [Mecarbinate] | NO |
| CCCCCCCCCCCCCCCCn1cc[n+](C)c1.[Cl-] [1-Hexadecyl-3-methylimidazolium chloride] | YES |

* * *

Items are presented alongside their recorded CYP1A2 Efficacy (in parenthesis).
Biological target: human CYP1A2 (Homo sapiens)
Sequence (P05177 1-516): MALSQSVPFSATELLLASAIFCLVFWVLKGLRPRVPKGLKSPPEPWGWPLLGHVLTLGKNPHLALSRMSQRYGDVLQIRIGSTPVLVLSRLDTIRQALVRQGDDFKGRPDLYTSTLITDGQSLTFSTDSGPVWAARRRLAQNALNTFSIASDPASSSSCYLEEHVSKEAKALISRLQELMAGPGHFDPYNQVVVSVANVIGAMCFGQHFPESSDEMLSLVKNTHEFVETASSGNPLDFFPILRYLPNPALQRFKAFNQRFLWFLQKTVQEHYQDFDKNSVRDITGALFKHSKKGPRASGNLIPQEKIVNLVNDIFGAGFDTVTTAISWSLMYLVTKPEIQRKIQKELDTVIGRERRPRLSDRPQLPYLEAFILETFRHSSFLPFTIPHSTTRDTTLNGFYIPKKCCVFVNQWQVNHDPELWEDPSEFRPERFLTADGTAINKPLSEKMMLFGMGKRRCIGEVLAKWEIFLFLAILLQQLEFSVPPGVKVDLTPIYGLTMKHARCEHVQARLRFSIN
Settings: human
ASSAY READOUT: CYP1A2 Efficacy (in parenthesis)

| MOLECULE | TARGET ENTITY | ASSAY READOUT | RECORDED VALUE |
| --- | --- | --- | --- |
| O=C1c2ccccc2Cc2ccccc21 | human CYP1A2 (Homo sapiens) | CYP1A2 Efficacy (in parenthesis) | 0.44 ± 0.07 (-99 ± 1) % |
| COC(=O)N(OC)c1ccccc1COc1ccn(-c2ccc(Cl)cc2)n1 | human CYP1A2 (Homo sapiens) | CYP1A2 Efficacy (in parenthesis) | 0.99 ± 0.24 (-102 ± 3) % |
| N#Cc1c(Cl)c(Cl)c(Cl)c(C#N)c1Cl | human CYP1A2 (Homo sapiens) | CYP1A2 Efficacy (in parenthesis) | 1.03 ± 0.19 (-97 ± 4) % |
| CC(C)(C)C(O)(CCc1ccc(Cl)cc1)Cn1cncn1 (stereo not shown) | human CYP1A2 (Homo sapiens) | CYP1A2 Efficacy (in parenthesis) | 31.85 ± 3.66 (-77 ± 8) % |
| CCN(CC)C(=O)SCc1ccc(Cl)cc1 | human CYP1A2 (Homo sapiens) | CYP1A2 Efficacy (in parenthesis) | 15.89 ± 0 (-91 ± 6) % |
| CCOP(=S)(OCC)SCn1c(=O)oc2cc(Cl)ccc21 | human CYP1A2 (Homo sapiens) | CYP1A2 Efficacy (in parenthesis) | 2.98 ± 0.74 (-99 ± 6) % |
| Fc1ccc(Oc2ccnc3cc(Cl)cc(Cl)c23)cc1 | human CYP1A2 (Homo sapiens) | CYP1A2 Efficacy (in parenthesis) | 0.53 ± 0.32 (-98 ± 2) % |
| C=CC(=O)OCC(CO)(COC(=O)C=C)COC(=O)C=C [Pentaerythritol triacrylate] | human CYP1A2 (Homo sapiens) | CYP1A2 Efficacy (in parenthesis) | 71.58 ± 8.23 (-54 ± 11) % |
| OC(c1ccc(Cl)cc1)(c1ccc(Cl)cc1)C(Cl)(Cl)Cl | human CYP1A2 (Homo sapiens) | CYP1A2 Efficacy (in parenthesis) | 8.5 ± 4.94 (-106 ± 9) % |
| CCOP(=S)(OCC)SCn1nnc2ccccc2c1=O | human CYP1A2 (Homo sapiens) | CYP1A2 Efficacy (in parenthesis) | 28.65 ± 6 (-88 ± 5) % |
